Source listed as patent US20260176289A1.

# testTarget: KRAS-WT (Homo sapiens, UniProt P01116)
# Sequence (P01116 with tags, fused parts or gaps isoform P01116-2): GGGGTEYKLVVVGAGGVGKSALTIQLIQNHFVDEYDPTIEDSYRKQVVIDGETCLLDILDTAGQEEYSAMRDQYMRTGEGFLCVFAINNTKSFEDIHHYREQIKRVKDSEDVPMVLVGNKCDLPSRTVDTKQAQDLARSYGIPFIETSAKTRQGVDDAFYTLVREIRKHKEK
# experimentalDetails: SOS-catalyzed nucleotide exchange assay (Procedure A, TR-FRET), KRAS-WT
# Assay type: biochemical
# testSettings: nucleotide exchange, read-out: KRAS WT GNE IC50
# IC50 per entry
measurementName: IC50 (nM)

CCC1(O)COCCN(c2nc(OC[C@@]34CCCN3C[C@H](F)C4)nc3sc4c(-c5c(C(F)(F)F)c(C)cc6[nH]ncc56)nccc4c23)C1 (stereo partly drawn)    404
C[C@@]1(O)COCCN(c2nc(OC[C@@]34CCCN3C/C(=C\F)C4)nc3sc4c(-c5c(C6CC6)c(C(F)(F)F)cc6[nH]ncc56)nccc4c23)C1    80
CN1CCC[C@@]2(COc3nc(N4CCOC[C@@](C)(O)C4)c4c(n3)sc3c(-c5c(C6CC6)c(Cl)cc6[nH]ncc56)nccc34)CCC[C@@H]12    8.85
CCC1=CC(F)(F)c2cc3[nH]ncc3c(-c3nccc4c3sc3nc(OC[C@@]56CCCN5C[C@H](F)C6)nc(N5CCOC[C@@](C)(O)C5)c34)c21    380
C[C@@]1(O)COCCN(c2nc(OC[C@]3(CN4CC5(COC5)C4)CC3(F)F)nc3sc4c(-c5c(C6CC6)c(Cl)cc6[nH]ncc56)nccc4c23)C1    12.2
C[C@@]1(O)COCCN(c2nc(OC[C@@]34CCCN3C[C@H](F)C4)nc3sc4c(-c5c(C6CC6)c(C(F)(F)F)cc6[nH]ncc56)nccc4c23)C1    8.47
